Data provenance is patent US20200148774A1.

Measured on: T1, recombinant cynomolgus CLL-1 extracellular domain (ECD, amino acids 65-265) fused to an N-terminal Flag (cynomolgus monkey)
T1 construct: Construct stated for the immunogen; also called CynoCLL-1 Flag; cynoCLL-1
T1 chain: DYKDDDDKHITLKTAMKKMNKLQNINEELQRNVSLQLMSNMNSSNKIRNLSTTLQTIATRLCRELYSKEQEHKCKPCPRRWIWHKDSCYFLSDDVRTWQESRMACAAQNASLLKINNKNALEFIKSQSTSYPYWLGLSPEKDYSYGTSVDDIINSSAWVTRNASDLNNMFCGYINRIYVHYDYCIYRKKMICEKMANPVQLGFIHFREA
Assay protocol: SPR (Biacore), chimeric IgG captured by anti-human IgG, CLL-1 as analyte
Measurement label: pKd
FYI, pKd means -log10 of a concentration in mol per litre.

*Q* Name the recorded pKd for ch28H12 (antibody, V domains shown, chimeric version of m28H12, human IgG; also called chimeric 28H12) VH: QVQLQQSGAELVKPGASVKLSCTASGFNIKDTYMHWVKQRPEQGLEWIGRIDPANGDTDYDPKFQGKATVTADTSSNTAYLQLSSLTSEDTAVYYCTISGPPYYVMDYWGQGTSVTVSS VL: DIQMTQSPASLAVSLGQRATISCRASQSVSSSSYSYMHWYQQKPGQPPKLLIKYASNLESGVPARFSGRGSGTDFTLNIHPVEEEDTATYYCQHSWEIPYTFGGGTRLEIK .
*A* 9.52

*Q* # input binder: ch6E7 (antibody, V domains shown, chimeric version of m6E7, human IgG; also called chimeric 6E7; Chimeric 6E7) VH: QVQLQQSGPELVKPGASVKISCKASGYSFTDYYMHWVKQSHIKSLEWIGRINPYNGAAFYSQNFKDKASLTVDKSSSTAYMELHSLTSEDSAVYYCAIERGADLEGYAMDYWGQGTSVTVSS VL: DIVLTQSPSSLIVSLGQRATISCRASQSVSTSSYNYMHWYQQKPGQPPKLLLKYASNLESGVPARFSGSGSGTDFTLNIHPVEEEDTATYYCQHSWEIPLTFGAGTKLEIK ; wanted: its pKd
*A* 8.96

New cases:
*Q* Requested field: pKd. Item: ch21C9 (antibody, V domains shown, chimeric version of m21C9, human IgG; also called chimeric 21C9; Chimeric 21C9) VH: EVQLQQSGPELVKPGASVKMSCKASGYTFTDYYLDWVKQSHGESFEWIGRVNPYNGGTIYNQKFKGKATLTVDKSSSTAYMDLNSLTSEDSAVYYCARDHYRYDPLLDYWGQGTTLTVSS VL: DIQMTQSHKFMSTSVGDRVSITCKASQDVSTAVAWFQQKPGQSPKLLIYSPSYRYTGVPDRFTGSGSGTDFTFTISSVQAEDLAVYYCQQLYSTPYTFGGGTKLEIK
*A* 8.15
